Origin of values: patent US20200261596A1

experiment: Bortezomib solubility; assay type: physicochemical; conditions: water (quench phase), water, Quench phase: water; read-out: BTZ solubility
property-name: solubility (µg/mL)
Response body: numeric value in µg/mL, unit text excluded.

For the compound CC(C)C[C@H](NC(=O)[C@H](Cc1ccccc1)NC(=O)c1cnccn1)B(O)O [Bortezomib, bortezomib] , what solubility is on record?
1100

* * *

assay: Bortezomib solubility; type: physicochemical; conditions: benzyl alcohol:ethyl acetate 21:79 (w/w %) (oil phase), organic solvent or mixture, Oil phase: Benzyl alcohol:Ethyl acetate (BA:EA = 21:79, w/w %); read-out: BTZ solubility
property-name: solubility

For the compound CC(C)C[C@H](NC(=O)[C@H](Cc1ccccc1)NC(=O)c1cnccn1)B(O)O , what solubility is on record?
> 93 mg/mL

* * *

assay: Bortezomib solubility; type: physicochemical; details: 0.5% sodium cholate, 2% BA, 4% EA in water (water phase), aqueous with cosolvent or surfactant or cyclodextrin, Water phase: 0.5% sodium cholate, 2% BA, 4% EA in water; read-out: BTZ solubility
property-name: solubility (µg/mL)
Response body: numeric value in µg/mL, unit text excluded.

For the compound CC(C)C[C@H](NC(=O)[C@H](Cc1ccccc1)NC(=O)c1cnccn1)B(O)O , what solubility is on record?
1300
